experiment: protein stability index of a GFP-peptide fusion (yeast GPS) (PSI 1-4); higher = more stable; sorted into four equal gates, so the index is relative within each strain
condition.parameters: pdr5∆
reported.endpoint: protein stability index

seq="TTLNEMFRYKTNLYKLK [PUP3]" reported_endpoint="protein stability index" value_measured=2.66
seq="LKIYAQIEKKEIKKMII [YCG1]" reported_endpoint="protein stability index" value_measured=2.8
seq="KELDALQEKEQLYFKKK [ISW2]" reported_endpoint="protein stability index" value_measured=3.15
seq="TAFKSSPFGGSSHAKGI [RPS23A]" reported_endpoint="protein stability index" value_measured=2.61
seq="LNLDSLLVDQKQLNSLR [SMD1]" reported_endpoint="protein stability index" value_measured=2.79
seq="LTHRLGGDTCSSDGALC [POP1]" reported_endpoint="protein stability index" value_measured=3.39
seq="RLGGDDLRIRIKLDIVV [SNF5]" reported_endpoint="protein stability index" value_measured=1.33
seq="AQGVAVQLKRQPAQPRE [RPL21A]" reported_endpoint="protein stability index" value_measured=1.22
seq="PTPAASAPAPAAAAPAP [FAS2]" reported_endpoint="protein stability index" value_measured=3.05
seq="RQQYYSGVQVGGVGSMG [SNF6]" reported_endpoint="protein stability index" value_measured=2.44
seq="AQQAQQAQQAQQAQARL [SNF2]" reported_endpoint="protein stability index" value_measured=3.24
